Data credit: patent US20240307374A1

# Method Summary: pKa test, spectrophotometric method (UV-metric pKa)
# Assay type: physicochemical
# Condition Notes: MeOH cosolvent, Yasuda-Shedlovsky extrapolation; read-out: pKa 2, UV-metric
# Method: The spectrophotometric method (UV-metric pKa) and potentiometric method (pH-metric pKa) were used for pKa test of Compound (I) freeform. 1. For UV-metric pKa, the pKa values were determined by monitoring the change in UV absorbance with pH as the compound undergoes ionization. The psKa values were extrapolated to 0% organic content using the Yasuda-Shedlovsky extrapolation procedure for pKa values.
Quantity Name: pKa

Need pKa of CC(=O)NCC1CCN(Cc2cc(Oc3ccc(N4CCN(CCC(=O)O)CC4)nc3)nc(-c3cc(Cl)cc(Cl)c3)c2)CC1 [Compound (I) freeform] , thanks.
6.98

###

# Method Summary: Formulation solution stability experiments at 5° C.
# Format: physicochemical
# Condition Notes: formulation solution with sugar (supernatant), aqueous buffer, thermodynamic from solid; 5° C., presence of sugars, lowest value; read-out: citrate solubility (supernatant concentration)
# Protocol: The five formulations are shown in Table 7-2, and the characterization results are summarized in Example 7. The procedure is summarized below. • 1. […] Add about 149 mg citric acid into the volumetric flask of formulation 1/2/3/4. • 3. Add about 2037 mg of the corresponding sugar into the volumetric flask of formulation 2/3/4. […] Dilute to volume with water for formulation 1/2/3/4. • 5. Dilute to volume with pH=4.0 citrate/phosphate buffer for formulation 5. […]
Counter-ions that a name gives are not always drawn.
Quantity Name: solubility at 2 days (mg/mL)
Give the quantity in mg/mL, number only.

Need solubility at 2 days of CC(=O)NCC1CCN(Cc2cc(Oc3ccc(N4CCN(CCC(=O)O)CC4)nc3)nc(-c3cc(Cl)cc(Cl)c3)c2)CC1 [citrate salt] , thanks.
10.4

###

# Method Summary: Approximate solubility at RT
# Type: physicochemical
# Condition Notes: n-Heptane, organic solvent or mixture, thermodynamic from solid, n-Heptane, RT; read-out: Solubility
Quantity Name: solubility

Need solubility of CC(=O)NCC1CCN(Cc2cc(Oc3ccc(N4CCN(CCC(=O)O)CC4)nc3)nc(-c3cc(Cl)cc(Cl)c3)c2)CC1 [Freeform Type A] , thanks.
< 2200 µg/mL

###

# Method Summary: Approximate solubility at RT
# Assay type: physicochemical
# Condition Notes: EtOAc, organic solvent or mixture, thermodynamic from solid, EtOAc, RT; read-out: Solubility
Quantity Name: solubility

Need solubility of CC(=O)NCC1CCN(Cc2cc(Oc3ccc(N4CCN(CCC(=O)O)CC4)nc3)nc(-c3cc(Cl)cc(Cl)c3)c2)CC1 [Freeform Type A] , thanks.
< 2000 µg/mL

###

Catalogue of Area % (purity of supernatant) readings, one per entry.
# Method Summary: Equilibrium solubility in pH buffers (pH 4.0-6.0) with pH adjustment
# Format: physicochemical
# Condition Notes: pH = 6.0 buffer (50 mM citrate)
# Description: In details, ˜5 mg of solids were suspended into 1 mL of each medium with dosing conc. at ˜5 mg/mL. Additional solids were added into the sample to generate suspension if clear solution was obtained. The suspension was equilibrated via stirring (1000 rpm) for 24 hours. The pH of the suspension was adjusted when the final pH shifted above 0.3, and the samples were stirred for another 1.5 hours after pH adjustment. The suspension was centrifuged to obtain precipitate and supernatants. […]
Where a name gives a salt, the structure may show the parent alone.
Give the quantity in Area %, number only.

Consider the following illustrative entries.
CC(=O)NCC1CCN(Cc2cc(Oc3ccc(N4CCN(CCC(=O)O)CC4)nc3)nc(-c3cc(Cl)cc(Cl)c3)c2)CC1 [Freeform Type A] | 99.6
CC(=O)NCC1CCN(Cc2cc(Oc3ccc(N4CCN(CCC(=O)O)CC4)nc3)nc(-c3cc(Cl)cc(Cl)c3)c2)CC1 [HCl salt Type F] | 99.0
CC(=O)NCC1CCN(Cc2cc(Oc3ccc(N4CCN(CCC(=O)O)CC4)nc3)nc(-c3cc(Cl)cc(Cl)c3)c2)CC1 [Fumarate Type A] | 98.6

We now examine a further compound.
Need Area % (purity of supernatant) of CC(=O)NCC1CCN(Cc2cc(Oc3ccc(N4CCN(CCC(=O)O)CC4)nc3)nc(-c3cc(Cl)cc(Cl)c3)c2)CC1 [Sulfate Type B] , thanks.
92.6

###

# Method Summary: In situ salt solubility test (citric acid, fumaric acid)
# Type: physicochemical
# Condition Notes: water with 1.1 equivalent of fumaric acid, pH 4, thermodynamic from solid; 1.1 equivalent of fumaric acid in water, filtrate; read-out: Concentration (in situ salt solubility)
Quantity Name: solubility (µg/mL)
Give the quantity in µg/mL, number only.

Need solubility of CC(=O)NCC1CCN(Cc2cc(Oc3ccc(N4CCN(CCC(=O)O)CC4)nc3)nc(-c3cc(Cl)cc(Cl)c3)c2)CC1 [Freeform Type D] , thanks.
1100

###

# Method Summary: Complexation stability constant test: solubility in HPβCD solutions
# Format: physicochemical
# Condition Notes: 15% (w/w) HPβCD solution, pH 7.1, aqueous with cosolvent or surfactant or cyclodextrin, thermodynamic from solid; 15% HPβCD (122.34 mmol/L); read-out: API Solubility
Quantity Name: solubility at 24 h (µM)
Give the quantity in µM, number only.

Need solubility at 24 h of CC(=O)NCC1CCN(Cc2cc(Oc3ccc(N4CCN(CCC(=O)O)CC4)nc3)nc(-c3cc(Cl)cc(Cl)c3)c2)CC1 [Freeform Type D] , thanks.
2220

###

# Method Summary: Approximate solubility at RT
# Type: physicochemical
# Condition Notes: CHCl3, organic solvent or mixture, thermodynamic from solid, CHCl3, RT; read-out: Solubility
Quantity Name: solubility

Need solubility of CC(=O)NCC1CCN(Cc2cc(Oc3ccc(N4CCN(CCC(=O)O)CC4)nc3)nc(-c3cc(Cl)cc(Cl)c3)c2)CC1 [Freeform Type A] , thanks.
< 2100 µg/mL

###

# Method Summary: Complexation stability constant test: solubility in HPβCD solutions
# Type: physicochemical
# Condition Notes: 20% (w/w) HPβCD solution, aqueous with cosolvent or surfactant or cyclodextrin, thermodynamic from solid; 20% (w/w) HPβCD, RT, 24 hours, final pH 7.0; read-out: Solubility
Quantity Name: solubility at 24 h
Answer format: number, then unit.

Need solubility at 24 h of CC(=O)NCC1CCN(Cc2cc(Oc3ccc(N4CCN(CCC(=O)O)CC4)nc3)nc(-c3cc(Cl)cc(Cl)c3)c2)CC1 [Freeform Type D] , thanks.
2090 µg/mL

###

# Method Summary: Approximate solubility at RT
# Type: physicochemical
# Condition Notes: IPA, organic solvent or mixture, thermodynamic from solid, IPA, RT; read-out: Solubility
Quantity Name: solubility

Need solubility of CC(=O)NCC1CCN(Cc2cc(Oc3ccc(N4CCN(CCC(=O)O)CC4)nc3)nc(-c3cc(Cl)cc(Cl)c3)c2)CC1 [Freeform Type A] , thanks.
1500 to 1800 µg/mL

###

# Method Summary: Approximate solubility at RT
# Format: physicochemical
# Condition Notes: THF, organic solvent or mixture, thermodynamic from solid, THF, RT; read-out: Solubility
Quantity Name: solubility

Need solubility of CC(=O)NCC1CCN(Cc2cc(Oc3ccc(N4CCN(CCC(=O)O)CC4)nc3)nc(-c3cc(Cl)cc(Cl)c3)c2)CC1 [Freeform Type A] , thanks.
4000 to 8000 µg/mL

###

# Method Summary: Complexation stability constant test: solubility in SBECD solutions
# Type: physicochemical
# Condition Notes: 15% (w/w) SBECD solution, aqueous with cosolvent or surfactant or cyclodextrin, thermodynamic from solid; 15% (w/w) SBECD, RT, 24 hours, final pH 7.9; read-out: Solubility
Quantity Name: solubility at 24 h (µg/mL)
Give the quantity in µg/mL, number only.

Need solubility at 24 h of CC(=O)NCC1CCN(Cc2cc(Oc3ccc(N4CCN(CCC(=O)O)CC4)nc3)nc(-c3cc(Cl)cc(Cl)c3)c2)CC1 [Freeform Type D] , thanks.
8810

###

# Method Summary: Complexation stability constant test: solubility in SBECD solutions
# Format: physicochemical
# Condition Notes: 10% (w/w) SBECD solution, aqueous with cosolvent or surfactant or cyclodextrin, thermodynamic from solid; 10% (w/w) SBECD, RT, 24 hours, final pH 7.9; read-out: Solubility
Quantity Name: solubility at 24 h
Answer format: number, then unit.

Need solubility at 24 h of CC(=O)NCC1CCN(Cc2cc(Oc3ccc(N4CCN(CCC(=O)O)CC4)nc3)nc(-c3cc(Cl)cc(Cl)c3)c2)CC1 [Freeform Type D] , thanks.
6470 µg/mL

###

# Method Summary: pKa test, spectrophotometric method (UV-metric pKa)
# Assay type: physicochemical
# Condition Notes: MeOH cosolvent, Yasuda-Shedlovsky extrapolation; read-out: pKa 3, UV-metric
Quantity Name: pKa

Need pKa of CC(=O)NCC1CCN(Cc2cc(Oc3ccc(N4CCN(CCC(=O)O)CC4)nc3)nc(-c3cc(Cl)cc(Cl)c3)c2)CC1 [Compound (I) freeform] , thanks.
7.68
